Experimental Readout: melting point

INSERT INTO assay_data (given_smiles, result) VALUES
  ('CC(C)C[C@H](NC(=O)[C@@H](NC(=O)c1ccc(-c2ccccc2)cn1)[C@@H](C)O)B(O)O', '190 to 195 °C'),
  ('CC(C)C[C@H](NC(=O)[C@@H](NC(=O)c1cc(-c2ccccc2)n[nH]1)[C@@H](C)O)B(O)O', '232 to 236 °C'),
  ('Cc1ccc(C(=O)NC[C@H](NC(=O)c2ccc3ccccc3n2)C(=O)N[C@@H](CC(C)C)B(O)O)cc1', '235 to 237 °C'),
  ('CC(C)C[C@H](NC(=O)[C@@H](NC(=O)c1cncc(-c2ccccc2)c1)[C@@H](C)O)B1O[C@@H]2C[C@@H]3C[C@@H](C3(C)C)[C@]2(C)O1', '135 to 140 °C'),
  ('Cc1ccc(C(=O)NC[C@H](NC(=O)c2cccnc2)C(=O)N[C@@H](CC(C)C)B(O)O)cc1', '220 to 222 °C');

Let us examine a further case.
*Q* Requested field: melting point. Item: Cc1ccc(C(=O)NC[C@H](NC(=O)c2cccc(-c3cccs3)n2)C(=O)N[C@@H](CC(C)C)B(O)O)cc1
*A* 158 to 160 °C

Measured values drawn from patent US8283367B2 for this set.
